Overview of recorded folding enthalpy for various sequences
assay: folding enthalpy; higher = less favourable; fluorescence melt of hairpins on a sequencing array, two-state fit; details: sodium 0.088 M
Answer format: value, then unit.

Recorded folding enthalpy, per entry:
| Record Sequence | Measured Attribute | Meas Value |
| --- | --- | --- |
| GCCTCGCGAAAGCGGAGC ((..(((....)))..)) | folding enthalpy | -13.7 kcal/mol |
| GGCTTCGGAAACGGAGCC ((((.((....)).)))) | folding enthalpy | -42.2 kcal/mol |

[Q] So what does the record say about folding enthalpy for GGGTGTGGAAACACGCCC (((.(((....))).))) ?
[A] -39.6 kcal/mol

[Q] Queued: GACGCCGAAAGGCAAGTC ((((((....)))..)))
[A] -19.7 kcal/mol

[Q] Queued: CGACCGGAAACGGCTTCG ((((((....)))..)))
[A] -17 kcal/mol

* * *

test: folding enthalpy; higher = less favourable; fluorescence melt of hairpins on a sequencing array, two-state fit; conditions: sodium 0.088 M
Overview of recorded folding enthalpy for various sequences
Number only, in kcal/mol; omit the unit.

Recorded folding enthalpy, per entry:
| Record Sequence | folding enthalpy, kcal/mol |
| --- | --- |
| GATCGTTGCCACGATC ((((((....)))))) | -39.9 |
| GTTTACGGAAACGTGAAC (((.(((....))).))) | -27.7 |
| GAGATTGGAAACAACCTC (((.(((....))).))) | -21 |
| GATCGATGCATCGATC ((((((....)))))) | -46.9 |
| GCAGAAGGAAACTTCCGC ((.((((....)))).)) | -20.6 |

Now let's try a different one.
[Q] So what does the record say about folding enthalpy for CGAACCGGAAACGGATCG (((.(((....))).))) ?
[A] -27.6

* * *

test: melting temperature; fluorescence melt of hairpins on a sequencing array, two-state fit, raised by 9.35 °C to match UV melts; conditions: sodium 0.088 M
Measured Attribute: Tm (°C)
Number only, in °C; omit the unit.

Recorded Tm, per entry:
| Record Sequence | Measured Attribute | Meas Value |
| --- | --- | --- |
| CGCTGGAAACAGCG (((((....))))) | Tm | 66.2 |
| GTACAAGCGAAAGCTTAC (((..(((....)))))) | Tm | 28.4 |
| GATCATCGCCATGATC ((((((....)))))) | Tm | 46.3 |
| CAATTGAAAAATTG (((((....))))) | Tm | 35.6 |
| GATCCTAGTCAGGATC ((((((....)))))) | Tm | 51.6 |
| GTGGCGGCGAAAGCCCAC (((..(((....)))))) | Tm | 54 |
| GATCGGGCGAAAGCCATC (((..(((....)))))) | Tm | 22.6 |
| GTTAACGGAAACGTCAAC (((.(((....))).))) | Tm | 34.2 |
| GACCTGGGAAACCGGGTC ((((.((....)).)))) | Tm | 57.1 |
| GACCACGAAAGTGGTGTC ((((((....)))..))) | Tm | 55.4 |

[Q] So what does the record say about Tm for GGCCTTGGAAACAGGGCC ((((.((....)).)))) ?
[A] 57.1

[Q] Queued: GTTCCTGGAAACAGGGAC ((.((((....)))).))
[A] 50.8

[Q] Queued: GTGACCGGAAACGGTCGC (.(((((....))))).)
[A] 63.5

[Q] Queued: GACGTACGAAAGTAAGTC (((.(((....))).)))
[A] 50.6

* * *

Overview of recorded folding enthalpy for various sequences
test: folding enthalpy; higher = less favourable; fluorescence melt of hairpins on a sequencing array, two-state fit; settings: sodium 0.088 M
Number only, in kcal/mol; omit the unit.

Recorded folding enthalpy, per entry:
| Record Sequence | folding enthalpy [kcal/mol] |
| --- | --- |
| GATCTAGATGTAGATC ((((((....)))))) | -27.9 |
| ATCCTGAAAAGGAT (((((....))))) | -18.9 |
| GGAGTCGAAAGACCATCC ((((((....)))..))) | -11.2 |

[Q] So what does the record say about folding enthalpy for GCATTGCGAAAGCATCGC ((..(((....)))..)) ?
[A] -11.8

[Q] Queued: GATCCGGCATCGGATC ((((((....))))))
[A] -45.5

[Q] Queued: GCGCTCCCGAAAGGGCGC (((..(((....))))))
[A] -35

* * *

assay: folding enthalpy; higher = less favourable; fluorescence melt of hairpins on a sequencing array, two-state fit; details: sodium 0.088 M
Categorize each record by its folding enthalpy using interval 1 = under -30 kcal/mol, interval 2 = from -30 kcal/mol up to -20 kcal/mol, interval 3 = -20 kcal/mol and over

[Q] Band of GGGGACGGAAACGTCCTC (.(((((....))))).) ?
[A] interval 3

[Q] Queued: GGAACGCGAAAGCGCTCC (((.(((....))).)))
[A] interval 2

[Q] Queued: GCTCAAGGAAACTTGAGC (((((((....)))))))
[A] interval 1

* * *

Overview of recorded Tm for various sequences
assay: melting temperature; fluorescence melt of hairpins on a sequencing array, two-state fit, raised by 9.35 °C to match UV melts; conditions: sodium 0.088 M

| Record Sequence | Tm |
| --- | --- |
| GCGTATGGACGC ((((....)))) | 51.4 °C |
| GCAGCGCGAAAGCGACGC ((..(((....)))..)) | 60.7 °C |
| GGACGTCCGAAAGGATCC (((..(((....)))))) | 25.8 °C |

[Q] So what does the record say about Tm for GATCGATCCCTCGATC ((((((....)))))) ?
[A] 52.8 °C

[Q] Queued: CGCACGGAAACGTAAGCG ((((((....)))..)))
[A] 46.4 °C

[Q] Queued: GGTTGCGAAAGCATGACC ((((((....)))..)))
[A] 40.2 °C

[Q] Queued: GATCTCTTAAGAGATC ((((((....))))))
[A] 54.2 °C

[Q] Queued: GATTCGGGAAACCGAGTC ((.((((....)))).))
[A] 46.7 °C

[Q] Queued: GTGGGTCCGAAAGGACAC (((..(((....))))))
[A] 63 °C

* * *

experiment: folding enthalpy; higher = less favourable; fluorescence melt of hairpins on a sequencing array, two-state fit; conditions: sodium 0.088 M
Measured Attribute: folding enthalpy

| Record Sequence | folding enthalpy |
| --- | --- |
| GGGTTTCGAAAGAATCCC (((.(((....))).))) | -36.6 kcal/mol |
| GATCTACCTATAGATC ((((((....)))))) | -35 kcal/mol |
| GACAAAGGAAACTTTGTC (((((((....))))))) | -43.8 kcal/mol |
| GATCACCTACGTGATC ((((((....)))))) | -43 kcal/mol |
| GACCCGGGAAACCGGACC (..((((....))))..) | -10.3 kcal/mol |
| GATACCCGAAAGGGATC (((.(((....)))))) | -16.1 kcal/mol |
| GCTACTGGAAACAGTAGC (((((((....))))))) | -44.5 kcal/mol |
| GTAAGTCCGAAAGGATAC (((..(((....)))))) | -10.1 kcal/mol |

[Q] So what does the record say about folding enthalpy for GCCAAGCGAAAGCGTTGC ((.(.((....)).).)) ?
[A] -11.6 kcal/mol

[Q] Queued: GGCCTCGAAAGAGCTGCC ((((((....)))..)))
[A] -24 kcal/mol

[Q] Queued: GGTCTGCGAAAGCACACC (((.(((....))).)))
[A] -20.9 kcal/mol

[Q] Queued: GCTCTCGAAAGAGACAGC ((((((....)))..)))
[A] -17.8 kcal/mol

[Q] Queued: GGTGTTCGAAAGAAAACC (((.(((....))).)))
[A] -25.3 kcal/mol

* * *

assay: folding enthalpy; higher = less favourable; fluorescence melt of hairpins on a sequencing array, two-state fit; details: sodium 0.088 M
Decision: folding enthalpy compared against -30 kcal/mol; not below it gives MET, below it gives NOT MET.

Consider the worked cases shown below.
| Record Sequence | Discrete Label |
| --- | --- |
| GATTTCCGAAAGGAGATC (((.(((....))).))) | NOT MET |
| GCCCGCGAAAGCGAAGGC ((((((....)))..))) | MET |
| GACAGGGGAAACCCTGCC (.(((((....))))).) | MET |
| GAAGGCGAAAGCCAGTTC ((((((....)))..))) | MET |

Switching to the query record.
[Q] Does GAGTTGGGAAACTAGCTC (((.(.(....).).))) have a reported folding enthalpy of at least -30 kcal/mol?
[A] MET
